Give nuclei count for every item shown.
TEST METHOD NOTES: reduction of polyQ htt aggregates in cells – imaging, exon1htt(103Q)mCFP cells, high-content imaging, primary screen (AID 483);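 also: compound exposure lasted 3 days before fixation; percent of the per-plate median nuclei count of sample wells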
ASSAY CONDITIONS: exon1htt(103Q)mCFP cell line, aggregate imaging, at 2 µM; measured here: cell count, toxicity
One number for each entry, in %.

Would you please look over these solved cases?
CCOCCn1c(CN2CCN(c3cccc(Cl)c3)CC2)nc2c1c(=O)n(C)c(=O)n2C :: 104
COc1ccccc1-c1nc(C#N)c(N2CCN(c3ccccc3)CC2)o1 :: 119
Cc1ccc(Cn2c(SCC(N)=O)nc3c2c(=O)n(C)c(=O)n3C)cc1 :: 88
CC(=O)c1ccc(NC(=O)CSc2nnc(-c3ccoc3C)n2Cc2ccccc2)cc1 :: 98.2
O=C(NCCc1ccccc1)C1CCCN(S(=O)(=O)c2cccs2)C1 (stereo unspecified) :: 111

Batch: nuclei count for all items listed.
1. CCCCCCNC(=O)c1c(N)n(/N=C/c2ccco2)c2nc3ccccc3nc12
2. O=C(c1ccccc1)c1ccc(N2CCNCC2)cc1
3. O=C(CCNS(=O)(=O)c1ccc(Br)s1)N1CCCCC1

Return:
79.6
92.6
99.9

Below are some molecules; for each one, tell me its nuclei count.
1. Cc1nc2oc3c(NCc4ccccn4)ncnc3c2c2c1COC(C)(C)C2
2. CCOc1ccc(C2CC(c3ccccc3C)n3nc(N)nc3N2)cc1 (stereo unspecified)
3. COC(=O)CSc1nnc(-c2ccc(OC)cc2OC)o1

Return:
1. 78.1
2. 91.1
3. 109
